Assay info: Inhibitory activity measured for Glyceraldehyde-3-phosphate dehydrogenase (GAPDH) in Leishmania. mexicana
Listing: IC50 of selected compounds

CC(C)=CCNc1ncnc2c1ncn2[C@@H]1O[C@H](CO)[C@@H](O)[C@H]1O	> 5 mM
OC[C@H]1O[C@@H](n2cnc3c(NC4CCCC4)ncnc32)[C@H](O)[C@@H]1O	> 5 mM

Note: attention shifts to another entry.
// IC50 lookup, compound = CCC(C)CNc1ncnc2c1ncn2C1O[C@H](CO)[C@@H](O)[C@H]1O (stereo partly drawn) , result: > 5.4 mM
